tested.target: α1d-AR (Homo sapiens)
Construct: expressed in transfected cells; host or cells: COS-7
experiment.summary: α1-Adrenergic receptor radio-ligand (125I-HEAT) binding assay, α1d subtype
condition.notes: COS-7 cell membranes, 125I-HEAT; read-out: Receptor Binding, Ki α1d-AR
pKi: −log10 of the molar value.
Entries annotated with measured pKi
value.kind: pKi

compound: CC(C)Oc1ccccc1N1CCN([C@H]2CC[C@H](NS(=O)(=O)c3ccccc3[N+](=O)[O-])CC2)CC1 [Cpd 54]
result.number: 7.57
--
compound: CC(C)Oc1ccccc1N1CCN([C@H]2CC[C@H](NS(=O)(=O)c3ccccc3)CC2)CC1 [Cpd 53]
result.number: 7.26
--
compound: Cc1c(Cl)cccc1S(=O)(=O)N[C@H]1CC[C@H](N2CCN(c3ccccc3OC(C)C)CC2)CC1 [Cpd 39]
result.number: 8.27
--
compound: CC(C)Oc1ccccc1N1CCN([C@H]2CC[C@@H](NS(=O)(=O)c3ccc(S(C)(=O)=O)cc3)CC2)CC1 [Cpd 6]
result.number: 8.47
--
compound: Cc1ccc(S(=O)(=O)N[C@H]2CC[C@H](N3CCN(c4ccccc4OC(C)C)CC3)CC2)cc1Cl [Cpd 46]
result.number: 7.80
--
compound: COc1ccc(S(=O)(=O)N[C@H]2CC[C@H](N3CCN(c4cc(F)ccc4OCC(F)(F)F)CC3)CC2)cc1OC [Cpd 84]
result.number: 7.44
--
compound: CC(C)Oc1ccccc1N1CCN([C@H]2CC[C@H](NS(=O)(=O)c3ccc(S(C)(=O)=O)cc3)CC2)CC1 [Cpd 34]
result.number: 7.66

----------
tested.target: α1d-AR (Homo sapiens, UniProt P25100)
Construct: expressed in transfected cells; host or cells: COS-7
Sequence (P25100 1-572): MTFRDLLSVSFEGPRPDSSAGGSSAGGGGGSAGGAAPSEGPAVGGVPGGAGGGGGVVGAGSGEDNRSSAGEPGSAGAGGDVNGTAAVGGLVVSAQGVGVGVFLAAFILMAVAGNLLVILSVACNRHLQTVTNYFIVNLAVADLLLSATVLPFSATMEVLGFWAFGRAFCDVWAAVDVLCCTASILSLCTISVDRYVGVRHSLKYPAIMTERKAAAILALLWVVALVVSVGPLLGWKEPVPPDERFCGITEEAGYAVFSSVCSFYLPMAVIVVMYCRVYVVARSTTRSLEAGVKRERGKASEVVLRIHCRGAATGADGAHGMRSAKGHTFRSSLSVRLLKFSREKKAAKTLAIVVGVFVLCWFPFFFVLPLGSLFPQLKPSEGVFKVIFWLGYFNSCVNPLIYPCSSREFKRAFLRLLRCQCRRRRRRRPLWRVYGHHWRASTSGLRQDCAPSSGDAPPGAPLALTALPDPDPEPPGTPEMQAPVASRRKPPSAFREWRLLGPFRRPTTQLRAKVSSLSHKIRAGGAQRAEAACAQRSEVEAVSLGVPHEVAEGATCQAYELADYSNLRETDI
experiment.summary: α1-Adrenergic receptor radio-ligand (125I-HEAT) binding assay, α1d subtype
condition.notes: COS-7 cell membranes, 125I-HEAT; read-out: Receptor Binding, Ki α1d-AR
Please note: Ki exactly at 6 nM is no. Only values below 6 nM get yes.

compound.string: CCN([C@H]1CC[C@H](N2CCN(c3ccccc3OC(C)C)CC2)CC1)S(=O)(=O)c1ccc(OC)c(OC)c1
qualitative.label: no
//
compound.string: COc1ccc([N+](=O)[O-])cc1S(=O)(=O)N[C@H]1CC[C@@H](N2CCN(c3ccccc3OC(C)C)CC2)CC1
qualitative.label: yes
//
compound.string: COc1ccc(Br)cc1S(=O)(=O)N[C@H]1CC[C@H](N2CCN(c3ccccc3OC(C)C)CC2)CC1
qualitative.label: no
//
compound.string: COc1ccncc1S(=O)(=O)N[C@H]1CC[C@H](N2CCN(c3ccccc3OC(C)C)CC2)CC1
qualitative.label: no
//
compound.string: COc1ccc(C(F)(F)F)cc1S(=O)(=O)N[C@H]1CC[C@H](N2CCN(c3ccccc3OC(C)C)CC2)CC1
qualitative.label: yes
//
compound.string: CC(C)Oc1ccccc1N1CCN([C@H]2CC[C@@H](NS(=O)(=O)c3ccccc3S(C)(=O)=O)CC2)CC1
qualitative.label: yes
//
compound.string: COc1ccc(C)cc1S(=O)(=O)N[C@H]1CC[C@@H](N2CCN(c3ccccc3OC(C)C)CC2)CC1
qualitative.label: yes
//
compound.string: O=S(=O)(N[C@H]1CC[C@@H](N2CCN(c3ccc(F)cc3OCC(F)(F)F)CC2)CC1)c1cc(Cl)ccc1F
qualitative.label: no
//
compound.string: CC(C)Oc1ccccc1N1CCN([C@H]2CC[C@@H](NS(=O)(=O)c3ccccc3C#N)CC2)CC1
qualitative.label: no
//
compound.string: CC(C)Oc1ccccc1N1CCN([C@H]2CC[C@H](NS(=O)(=O)Cc3ccccc3)CC2)CC1
qualitative.label: no
//
compound.string: CC(C)Oc1ccccc1N1CCN([C@H]2CC[C@H](NS(=O)(=O)c3ccccc3C(F)(F)F)CC2)CC1
qualitative.label: no
//
compound.string: CC(C)Oc1ccccc1N1CCN([C@H]2CC[C@H](NS(=O)(=O)c3ccccc3C#N)CC2)CC1
qualitative.label: yes
//
compound.string: CC(C)Oc1ccccc1N1CCN([C@H]2CC[C@@H](NS(=O)(=O)c3ccc(F)c(Cl)c3)CC2)CC1
qualitative.label: yes
//
compound.string: COc1ccc(Cl)cc1S(=O)(=O)N[C@H]1CC[C@H](N2CCN(c3ccc(F)cc3OC(C)C)CC2)CC1
qualitative.label: no

Data origin, for the record: patent US20060173015A1
